# System: Wolbachia pipientis
# test_method_notes: Anti-Wolbachia Cell-Based Screen
# Assay type: functional
# Set-up: scale not given: in the data most compounds retested in dose-response had high values
# condition_description: 5 µM
The campaign covered roughly 48,000 compounds. About 13,000 (27%) showed an effect of 50% or more. Some of the results follow.
measure_name: Percent Effect (%)
Field: numeric (%). Do not append units.

// Percent Effect lookup, compound = "CC(=O)N1CCC(N2CCN3C(=O)N(c4ccccc4)C[C@H]3C2)CC1" , result: -6.558

// Percent Effect lookup, compound = Cc1cncc(C(=O)N2CCCCC2c2nc(C)cs2)c1 (stereo unspecified) , result: 6.279

// Percent Effect lookup, compound = "Cc1ccccc1CN1CCN(C(=O)CN2CCOC2=O)CC1" , result: -7.914

// Percent Effect lookup, compound = "O=C(C1CC=CC1)N1C[C@@H]2CN(Cc3ccsc3)CCO[C@@H]2C1.O=C(O)C(F)(F)F" , result: 1.635

// Percent Effect lookup, compound = "Cc1cnc(C)c(-c2cc(O)c3c(c2)CN(c2ncccn2)CCO3)n1" , result: -18.62

// Percent Effect lookup, compound = CC(NC1(CNS(=O)(=O)N(C)C)CCCC1)c1ccccc1 (stereo unspecified) , result: -3.44
